Value source: the domain aggregation screens of Martell et al. (2025)

Hi there, I'd appreciate the recorded soluble fraction (log2) for every entry that follows.
- Measurement Notes: soluble fraction after stress (log2 fold change); higher = more stays soluble; pooled small domains, quantitative proteomics;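 also: 20 min heating vs room temperature control held 20 min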
- Experimental Parameters: stress: 75 degC
Enter a number only.

response.value for HMTDGLTVPMQGVVIRYKAKKGDKVAVGDAVAVLEAMKMEQNIFANKSGTIKEIYIKEGTTVTPGDVLMSI (field: soluble fraction (log2)) = -0.315

response.value for HMGASSLVGRSARVLQAVTDSDGRIKLAGETWSARLAAGATSTVGPGEEVRVIAIHGATAIVAPV (field: soluble fraction (log2)) = -0.581

response.value for HMTASKSTVSTPEKVVYHIVFPKETKYSIAKKYGITIEELEKRNPEIIPSLSVGQKLVIKGTAPK (field: soluble fraction (log2)) = -0.236

response.value for HMSNFGERLRALRQDRQMTLQQASKVTGVAQSTLSKMENNQLSPTFNLMQKLAIGLGIDMPQLFAPVK (field: soluble fraction (log2)) = -0.642

response.value for HMLDSPHDDLNRKIVQMLQNDGRLPYKDIAEVLSVSEGTVRNRVQRMRDAGMLNIVALIDPMAI (field: soluble fraction (log2)) = -0.0197

response.value for HMETYTVPEVLGLTPEQAAQLPEVKDIFTLDVKEEGDFSDKPVGTIVRQSPTEGEHRKGDNLVIEVWLSV (field: soluble fraction (log2)) = 0.166

response.value for HMGPRKAGSEATRQKILDAAEILFAERGFHSVSVRDITTEAGVDVALINYHFGSKQLLFETVFMRR (field: soluble fraction (log2)) = -0.32

response.value for HMNKNQGVTTTNLNFRKSASTSSLVLYTIPKNTTLDILDKLPSGWYKVKYKGLTGYVSGSYV (field: soluble fraction (log2)) = -2.99

====

- Measurement Notes: soluble fraction after stress (log2 fold change); higher = more stays soluble; pooled small domains, quantitative proteomics
- Experimental Parameters: stress: 75 degC
Readout Label: soluble fraction (log2)
Enter a number only.

response.value for HMTATDRQLQLIAYTAARLMAEQGIADFNAAKRKAIQTLGLPNNAKLPGNADVEAQLRAYQRIF (field: soluble fraction (log2)) = -0.605

response.value for HMSLMLYVEDVDTAFKKAIELGATEIRPVHDQFYGDRAGTLQDPFGHIWIIGTHKEDVSDEELNNRIGNI (field: soluble fraction (log2)) = 0.104

response.value for HMGAVFEFIMEEEEPERIDKLLSSALPDLSRSYLQKLVKEGAVLVNKKEVKPNHKVNPGDVVEISVPEPE (field: soluble fraction (log2)) = 0.448

response.value for HMEVKEVDYSAFMTMTEENSISKVEIEENQILFKKKGDDQTTYKTARMDDPALITRLHDQGVDFTGQ (field: soluble fraction (log2)) = 0.139

response.value for HMGLVQQSAQKSDDAAKLMAANNLNAAQSKYQLPDEAEKDFFTFAFERGYAVEDFVDAGLVDKIMADFSA (field: soluble fraction (log2)) = -0.447

response.value for HMDALTLSIDAQGALYWNGQPVSRELAAQRFVEAAAQRPQPELHLRADQNVAYRHVAMTLADASRAGLTR (field: soluble fraction (log2)) = -0.248

response.value for HMETADREILLREIREIINERVDYNKDITDDEMKELVMNTVFERSRQQYMSIQDKQEIIQAIFNSMR (field: soluble fraction (log2)) = 0.029

response.value for HMSDIYSLFERELGRTLSSYEYEIIGKWIEKGVSEDTIKRALKEAILNGVTNFKYIDKIIYDWSKN (field: soluble fraction (log2)) = -0.622

response.value for HMKNISSEEDREKALSLGITQEFIDNKGRYFITVPNKPSNFKEQALNIQKEISEQIDTVINKRFEF (field: soluble fraction (log2)) = 0.0903

response.value for HMKNDKLLIFMELKGISRTQLSKSTGIPASTLGRIINGDVQKIKAVYMEAIANALDTSIHTIFDV (field: soluble fraction (log2)) = -1.6

response.value for HMYLHSEFSPVTGQELHMKYDDSSTEEDPVMLVEGKDIQGNDFVKKIHLNDVDPENATPAEMTALRVHL (field: soluble fraction (log2)) = 0.206

response.value for HMEPEYIGELEKRIKKLKTHTYSSIDRLMKSISKKYKITTQVLHDDFKNKHNEIPDEWVKQF (field: soluble fraction (log2)) = -0.126

response.value for HMSQPYFELAAADMEALRNALSTIREIESVVLSGKIFHVEVREDLDPGTMNKLAFERGITLTHLVKKKN (field: soluble fraction (log2)) = -2.89

response.value for HMGRRSKAMLSSALDAVPGLGEMRRKALISQFGSLKKLRGATPEEIAAVPGIGPKLAAAVHEAVSG (field: soluble fraction (log2)) = -0.0903

response.value for HMYDNTVTKYVNSLSVYVRKGPSTSDEIVTSLIKDTDVTVVGENGEWYKIKYKEFEGYIYKNLLSDNKT (field: soluble fraction (log2)) = -1.91

response.value for HMTGAEGKLARYLLTVPSGEPLRLSATDLAKRLGISRASLYRAFQALEDARLIRREGKSMYVLDPAGLEGV (field: soluble fraction (log2)) = -0.723

====

- Measurement Notes: soluble fraction after stress (log2 fold change); higher = more stays soluble; pooled small domains, quantitative proteomics
- Experimental Parameters: stress: 75 degC
Hi there, I'd appreciate the recorded soluble fraction (log2) for every entry that follows.
Enter a number only.

response.value for HMGSIGAMLSSPELYGKLATNPATRGFLSQPDFIAMLTDVQKNPDKFGSYMSDPRMMQVLSVALG (field: soluble fraction (log2)) = -0.231

response.value for HMTDVRFIDIPVTEHHPWNGMKVRDLQLPPGTLLVFLSHPGEKNTVPHGETVLRSGDVLVLGATAYTGQ (field: soluble fraction (log2)) = -0.753

response.value for HMEHIVNELDRKVIDYLQSHYDAKLNDIAQGIGVSKATATKSIRKLVQTGIVHVVGSSGTGTSYNLTE (field: soluble fraction (log2)) = -0.465

response.value for HMLMKILTDALEKMSPEELKELAEATGVKNTSSITPETMVGVFQAVFRVGGFKSYQLTLIIVNAVLKA (field: soluble fraction (log2)) = -0.148

response.value for HMEAQAHYDAIYKAHPNADSIAQSAEFKAWVDAQPSVVRNAYWQLFDPKEGGTAEQIVEVFDAFVKSS (field: soluble fraction (log2)) = 0.327

response.value for HMTPNRDDEHLQSLRDYYASNRRIPSLQRIAALLGFSSRSAAVKLMGRLADEGFVERTVDDDAWIPGSRFF (field: soluble fraction (log2)) = -1.14

response.value for HMGESEWIVKWRGEKRDEERLQESELVRDDPEHRISVVRPRDDVDASAWLNRWRKSRYVQYIQPNHRVTIS (field: soluble fraction (log2)) = 0.568

response.value for HMNQEFRMPNAIKGVELSEENKQQLTQGEKVFLEGMTSAKGSLFDAYVYIDQEKKTLAFDFPEK (field: soluble fraction (log2)) = 0.0813

response.value for HMFGEDNLKSKEIKERVTEVAKHADDPVWIEARRKWKDENPDQNVKDYQQAYISGRIHELPWDVSYI (field: soluble fraction (log2)) = 0.117

response.value for HMLVIMKTGASEEEIGRVIERIEGEGLSAHVSRGTERTVIGVIGQGVDVHRIAGVLGGMSGVESLVPIS (field: soluble fraction (log2)) = 0.0604

response.value for HMREVVLNRIGSVAVQRATTRTWEEWVVTLDAEGMRGKEHRDVVGHLLRAHELTSWWAQMVSVGYEQSRGQ (field: soluble fraction (log2)) = -0.18

response.value for HMIAVIKPSATAEQKAGLVDWIRGQGIDVHISEGHDYTVLGLIGDTSKIDMDLIASLDIVDSVKRVA (field: soluble fraction (log2)) = -0.338

response.value for HMKRNTKAEVLEILLNSGETPVSGERLAENLGISRNAVWKAVTALKEDGYNISAKRNSGYILNKS (field: soluble fraction (log2)) = -0.143

response.value for HMHPMVEAYLADLDRALSGSDPREHAETMSAVREHLADAIAPDATAEQVRHALDELGPVEAIAAG (field: soluble fraction (log2)) = 0.0321

response.value for HMENLFPDYTMQDYRIVRSELSSKFKVQTVPVTTATATENKIVRQEPEAGSRITEGMTVILYYSIGPE (field: soluble fraction (log2)) = -1.51

response.value for HMEQKELAPLVPQEDGSVKLTNLAGYSMREVAAALEGGNLSLIPIGSGTSWKQDPAPGTVLQPGNTVTVYF (field: soluble fraction (log2)) = -0.297

response.value for HMPVSVAEQKQILAEALQERGHATFRELIENADNRMIVVGRFLALLELYRDGTVRFEQERALGELTIHWEE (field: soluble fraction (log2)) = -2.07

====

- Measurement Notes: soluble fraction after stress (log2 fold change); higher = more stays soluble; pooled small domains, quantitative proteomics
- Experimental Parameters: stress: 75 degC
Readout Label: soluble fraction (log2)

response.value for HMSNMESLIGREATVIEMIPAEDVGRVKIDGDEWQAVLAREDDNEPRRDIQVGEKVIIVSYDSIILTVKTK (field: soluble fraction (log2)) = 0.0742

response.value for HMGRKEIIVPNLLGKYAIEAGTILKNAGLLEGQAREENSDTYPAGQIMDQFPKANTPANENDKVDYVVSI (field: soluble fraction (log2)) = ≥ 1.04

response.value for HMLEQEDMYGYQMIETLRERSEHSFDLKAGTLYPLLHALEQKGLITARDEASAAGRPRRYYHLTDAG (field: soluble fraction (log2)) = -0.354

response.value for HMLIELKIPSEWAGKSLHTLNLRQNYNVNVIGFRDEKSGKLNTHFDPSKKLPDEGIILVVADNRTLEKF (field: soluble fraction (log2)) = -0.7
